Each recorded value in this set is attributed to patent US20230056135A1.

# Test system: human PBM
# ASSAY_NOTES: Cellular toxicity assay in human PBM cells
# Format: cell-based
# CONDITIONS_USED: human PBM cells; read-out: Cytotoxicity; CC50 (μM) PBM
CC50 listing for selected compounds.

Guide cases for CC50, answers given:
| COMPOUND | CC50 |
| --- | --- |
| Cc1c(C(=O)C(=O)NCc2cn(CCCCCCCCCCCCn3cc(CNC(=O)C(=O)c4c(C)c(C(=O)Nc5ccc(F)c(F)c5)n(C)c4C)nn3)nn2)c(C)n(C)c1C(=O)Nc1ccc(F)c(F)c1 [Compound 53] | 35 µM |
| Cc1c(C(=O)C(=O)NCc2cn(CCOCCOCCOCC(CO)COCCOCCOCCn3cc(CNC(=O)C(=O)c4c(C)c(C(=O)Nc5ccc(F)c(F)c5)n(C)c4C)nn3)nn2)c(C)n(C)c1C(=O)Nc1ccc(F)c(F)c1 [Compound 101] | > 100 µM |

# ---- query compound ----
Challenge: Quick check: CC50 of Cc1c(C(=O)C(=O)NCc2cn(CCCCCCCCn3cc(CNC(=O)C(=O)c4c(C)c(C(=O)Nc5ccc(F)c(F)c5)n(C)c4C)nn3)nn2)c(C)n(C)c1C(=O)Nc1ccc(F)c(F)c1 [Compound 9] ?
Response given: 26.4 µM

----------
# ASSAY_NOTES: Cellular toxicity assay in Vero cells
# Format: cell-based
# CONDITIONS_USED: African green monkey
QUANTITY_NAME: CC50 (µM)
Lab book: enter the figure in µM, no units written.

Challenge: Quick check: CC50 of O=C(Nc1ccc(F)c(Cl)c1)N1[C@@H]2CC[C@H]1c1c(-c3cscn3)n[nH]c1C2 ?
Response given: 61

----------
# Tested on: HBV
# ASSAY_NOTES: Antiviral activity in HepG2-NTCP infectious system
# Assay type: cell-based
# CONDITIONS_USED: Hepatitis B virus, 264 h, read-out: HBeAg EC50, nM
QUANTITY_NAME: EC50 (nM)
Lab book: enter the figure in nM, no units written.

Challenge: Entry C#CCNC(=O)C(=O)c1c(C)c(C(=O)Nc2ccc(F)c(F)c2)n(CC#C)c1C , system HBV: what EC50 was measured?
Response given: 488

----------
# ASSAY_NOTES: Cellular toxicity assay in human PBM cells
# Format: cell-based
# CONDITIONS_USED: human
QUANTITY_NAME: CC50 (µM)
Lab book: enter the figure in µM, no units written.

Challenge: Quick check: CC50 of O=C(Nc1ccc(F)c(Cl)c1)N1[C@@H]2CC[C@H]1c1c(-c3cscn3)n[nH]c1C2 [Compound 33] ?
Response given: 32

----------
# ASSAY_NOTES: Cellular toxicity assay in HepG2 cells
# Type: cell-based
# CONDITIONS_USED: human
QUANTITY_NAME: CC50 (µM)
Lab book: enter the figure in µM, no units written.

Challenge: Quick check: CC50 of O=C(Nc1ccc(F)c(Cl)c1)N1[C@@H]2CC[C@H]1c1c(-c3cscn3)n[nH]c1C2 ?
Response given: 19

----------
# Test system: HepG2 cells
# ASSAY_NOTES: Cellular toxicity assay in HepG2 cells
# Format: cell-based
CC50 listing for selected molecules.

| MOLECULE | QUANTITY_NAME | ENDPOINT_RESULT |
| --- | --- | --- |
| CCOC(=O)C1=C(CNCc2cn(CCCCCCCCn3cc(CNC(=O)C(=O)c4c(C)c(C(=O)Nc5ccc(F)c(F)c5)n(C)c4C)nn3)nn2)NC(c2nccs2)=NC1c1ccc(F)cc1Br (centres unmarked) [Compound 20] | CC50 | > 100 µM |

Challenge: Quick check: CC50 of O=C(NC(Br)=C(C(=O)N1CCCCC1)c1ccccc1OCCCCCCCCCCCCOc1ccccc1C(C(=O)N1CCCCC1)=C(Br)NC(=O)c1ccc([N+](=O)[O-])cc1)c1ccc([N+](=O)[O-])cc1 [Compound 28] ?
Response given: > 100 µM
